Tested on: MCF7 breast
protocolNotes: NCI tumour cell line growth inhibition, 48 h
Note to self: values exactly at 40 µM are yes. So TGI at or above 40 µM is yes, below is no.

Q: Given the entry O=C(/C=C/c1ccc(C(F)(F)F)cc1)c1ccc(Nc2nc(NCCO)nc(Nc3ccc(Cl)cc3)n2)cc1 , answer whether its TGI meets or surpasses 40 µM.
Result: no

Q: Tell me whether TGI is at least 40 µM here: C=CC(Cl)(CBr)CCC(Br)C(C)(C)Cl (stereo not given)
Result: no

Q: Could you please find out whether CN(C)CCNC(=O)c1ccc(NC(=O)c2nc([N+](=O)[O-])cn2C)cc1 has TGI that meets 40 µM or exceeds it?
Result: yes

Q: I'd appreciate it if you could say whether COc1cc(/C=C/C(=O)C2(C(=O)/C=C/c3cc(OC)c(OC)c(OC)c3)CCCCC2)cc(OC)c1OC has TGI at least equal to 40 µM.
Result: yes

Q: For this compound, is measured TGI 40 µM or higher? C(=C\c1ccco1)/c1cccc(/C=C/c2ccco2)n1
Result: yes

Q: hey, is TGI for this one >= 40 µM? CC(=O)Nc1ccc(C2SCc3nc4ccccc4n32)cc1 (stereo not given)
Result: yes

Q: # check: TGI of COc1cc(Cc2nccc3cc(OC)c(OC)cc23)c(N=NN(C)C)cc1OC is greater than or equal to 40 µM
Result: no

Q: Please check the record O=[N+]([O-])c1cc(-c2nc(-c3ccccc3)c(-c3ccccc3)[nH]2)c(O)c([N+](=O)[O-])c1 and state if its TGI is at or above 40 µM.
Result: yes

Q: API: above_or_equal(metric=TGI, cutoff=40 µM) for item O=C1c2ccccc2-c2c1c1ccccc1c(=O)n2CCCn1ccnc1
Result: yes

Q: Reported TGI reaches at least 40 µM for OC(c1cc(C23CC4CC(CC(C4)C2)C3)nc2c(Cl)cc(Cl)cc12)C1CCCCN1 (stereo not given) ?
Result: no

----------
Test system: A549 NSCLC
protocolNotes: NCI tumour cell line growth inhibition, 48 h
Parameter: TGI. Scope: all listed entries.

{"molecule": "O=C1C(=Cc2c(O)cc(O)cc2O)C(=O)c2ccccc21", "TGI": "> 100 µM"}
{"molecule": "CN(C)c1nc(Cl)c2c(-c3ccccc3)c(-c3ccccc3)oc2n1", "TGI": "> 100 µM"}
{"molecule": "O=C(Nc1ccc([N+](=O)[O-])cc1Cl)c1cccc([N+](=O)[O-])c1O", "TGI": "7.31 µM"}
{"molecule": "O=c1/c(=C/c2ccc(-c3ccc(Cl)cc3Cl)o2)sc2n1[C@@H](c1ccc(Cl)cc1)C=C(c1cc(F)c(Cl)cc1Cl)N=2", "TGI": "> 100 µM"}
{"molecule": "CN(Cc1cc(C(C)(C)C)cc(Br)c1O)Cc1cc(C(C)(C)C)cc(Br)c1O", "TGI": "13.7 µM"}
{"molecule": "O=C(O)CN1C(=O)C(Cc2ccc(O)cc2)N=C(c2cccc(O)c2)c2ccccc21 (stereo unspecified)", "TGI": "> 100 µM"}
{"molecule": "O=Cc1c(O)c(C(=O)Nc2ccc3[nH]c(=O)[nH]c3c2)cc2ccccc12", "TGI": "> 100 µM"}
{"molecule": "CN(C)c1ccc(/C=c2\\sc3nc4ccccc4n3c2=O)cc1", "TGI": "> 100 µM"}

Q: Give the reported TGI for this molecule. C[N+]1=C(/C=C\C=C\c2ccccc2)C(C)(C)c2ccccc21
Result: 19.6 µM

Q: Specify measured TGI for O=[N+]([O-])c1ccc(N/N=C/c2ccc(OCCCCCCCCCCCO)cc2)c([N+](=O)[O-])c1 .
Result: > 38.9 µM

Q: Specify TGI for CC(=O)c1cc2ccccc2oc1=O and stop.
Result: > 100 µM

Q: Quick one: give measured TGI for O=C1C(c2c(O)[nH]c3ccc(Br)cc23)=Nc2ccccc21
Result: 17.3 µM

Q: Hello, please tell me recorded TGI for this one: Cc1ncc(C(=O)Nc2ccc(CN3CCN(C)CC3)c(C(F)(F)F)c2)cc1C#Cc1cnc(N)cc1C#N
Result: 3.93 µM

----------
Test system: SF-295 CNS
protocolNotes: NCI tumour cell line growth inhibition, 48 h
endpointLabel: TGI (µM)
Write the value in µM as a bare number.

Would you please look over these solved cases?
{"compound": "C#CCOc1cccc(Nc2ncnc3cc(NC(=O)CCl)ccc23)c1", "endpointUnit": "µM", "TGI": 15.2}
{"compound": "COc1ccc2nc(-c3ccc(O)cc3)sc2c1", "endpointUnit": "µM", "TGI": 42.6}
{"compound": "CCCCCCCCCCCCC(O)[C@H]1CC[C@H](C(O)CCCCCC(=O)CCCCC2CC(C(C)=O)C(=O)O2)O1 (some centres undefined)", "endpointUnit": "µM", "TGI": 37.6}

With those in mind, consider the next compound.
Q: Note down TGI recorded for CN(C)CC/[N+]([O-])=C(/c1ccccc1)C12CC3CC(CC(C3)C1)C2
Result: 27.5

----------
Tested on: SNB-19 CNS
protocolNotes: NCI tumour cell line growth inhibition, 48 h
endpointLabel: TGI

{"compound": "Cn1c2ccccc2c(=O)c2cccc(C(=O)NC(CCC(N)=O)C(=O)O)c21 (stereo not given)", "endpointLabel": "TGI", "result": "> 100 µM"}
{"compound": "Nn1c(Cc2ccc([N+](=O)[O-])cc2)n[nH]c1=O", "endpointLabel": "TGI", "result": "> 100 µM"}
{"compound": "CC(=O)C1CC[C@@H]2[C@H](CC[C@]3(C)[C@@H](O)CC[C@@H]23)[C@H]1C(=O)O (stereo not given in full)", "endpointLabel": "TGI", "result": "> 100 µM"}
{"compound": "CO/N=C(\\C)CCC#Cc1ccccc1C(=O)OC", "endpointLabel": "TGI", "result": "> 10 µM"}
{"compound": "CCOC(=O)NC(Nc1ccc(C(=O)OCC)cc1)(C(F)(F)F)C(F)(F)F", "endpointLabel": "TGI", "result": "> 100 µM"}

Q: Recall the reported TGI of O=C1Oc2cc(O)cc(/C=C/c3ccc(O)cc3)c2[C@@]12c1c(O)cc(O)cc1OC2c1cccc(O)c1 (stereo not given in full) when tested on SNB-19 CNS.
Result: 91.6 µM

Q: State, for SNB-19 CNS, measured TGI of the compound listed here: C#CCOc1cccc(Nc2ncnc3cc(NC(=O)CCl)ccc23)c1
Result: 18.4 µM

Q: Write down measured TGI (SNB-19 CNS) for this compound. Cc1cn(CC2=NCC(C)N2)c(=O)[nH]c1=O (stereo not given)
Result: > 100 µM

Q: For SNB-19 CNS, give the measured TGI of the entry CCN(CC)c1ccc(N=Nc2ccc(-c3nc4ccc[n+](C)c4o3)cc2)cc1
Result: 26.1 µM

Q: Find TGI for O=C(O)C1CC(O)CN1 (stereo not given) on SNB-19 CNS and write it down.
Result: > 100 µM

Q: Give measured TGI for Cc1ncc(C(=O)Nc2ccc(CN3CCN(C)CC3)c(C(F)(F)F)c2)cc1C#Cc1cnc(N)cc1C#N (SNB-19 CNS).
Result: 4.67 µM

Q: Tell me its TGI on SNB-19 CNS: N#C/C(=C\c1ccc(Br)cc1)n1nnc2ccc(F)cc21
Result: 3.16 µM

Q: Answer with TGI of O=C1C(=O)c2cccnc2-c2ncccc21 measured for SNB-19 CNS.
Result: 1.1 µM

Q: Identify measured TGI obtained with SNB-19 CNS for N#CC1CCCCCCCCCCC(=O)N(CCCl)C1=O (stereo not given) .
Result: > 100 µM

Q: For SNB-19 CNS, give the measured TGI of the entry N#C/C(N)=C(\C#N)NC(=O)C(=O)N/C(C#N)=C(\N)C#N
Result: > 100 µM

Q: Report TGI under test system SNB-19 CNS for O=C(O)CCc1nn2c(nc1=O)sc1ccc3ccccc3c12 .
Result: > 100 µM

Q: Retrieve TGI on SNB-19 CNS; query CSc1nc(SC)c2c(CO)c(Br)n(Cc3ccccc3)c2n1
Result: 84.3 µM

Q: Quote SNB-19 CNS TGI for entry CC(C)OP(=O)(NC(=S)c1ccccc1)OC(C)C .
Result: > 100 µM

Q: Provide measured TGI on SNB-19 CNS for CC(C)=CC1=C2C3=C(C(=O)C4(O)Oc5c(C)c6c7c(c5OC24C)[C@@H](C)CC[C@@H]7[C@@H](C)C[C@H]6C=C(C)C)C(C)CCC3C(C)C1 (stereo not given in full) please.
Result: > 100 µM

Q: With SNB-19 CNS as the test system, provide measured TGI for this compound: CCCCCCCc1cc2c3c(nc4ccccc42)C(=O)c2cccnc2-c3n1
Result: 7.31 µM

Q: Under SNB-19 CNS, report TGI for C=C(C)[C@@H]1CCC2=C[C@H](OC2=O)[C@@]2(C)C[C@@H]2C2=CC(C)=C(O2)[C@H]1O
Result: > 75 µM

Q: Tell me its TGI on SNB-19 CNS: O=C(NC12CC3CC(CC(C3)C1)C2)C(=O)c1c[nH]c2ccccc12
Result: 32.3 µM

Q: State recorded TGI with SNB-19 CNS, entry Cc1cc2c([nH]c3ccccc32)c2c1OC(C)(C)C1C3CC(C)(C)Oc4c(C)cc5c6ccccc6n(c5c43)C21 (stereo not given) , no comment.
Result: > 100 µM

Q: Specify the recorded TGI for COc1cc(-c2nc(SCCC(C)C)nc(Nc3ccc(S(N)(=O)=O)cc3)c2C#N)cc(OC)c1OC , system: SNB-19 CNS.
Result: > 100 µM

Q: Given NC(N)=NS(=O)(=O)c1ccc(NCCc2c3ccccc3nc3ccccc23)cc1 , report its TGI on SNB-19 CNS.
Result: > 100 µM

Q: Send back SNB-19 CNS TGI of Cn1c(-c2cccc([N+](=O)[O-])c2)[n+](C)c2ccccc21 only.
Result: > 100 µM

Q: Give reported TGI for CCC(=O)Nc1ccc(N2C(=O)C(Cl)C2c2ccc(SC)cc2)cc1 (stereo not given) (SNB-19 CNS)
Result: > 100 µM

All figures here come from PubChem BioAssay (NCI).
